# METHOD: Stabilizing effect of accelerated stabilizers (37° C., 14 days) on standard products and quality control products then accelerated at 30° C. for 2 days
# Assay type: physicochemical
# TEST_CONTEXT: High concentration level; 2 days at 30° C. vs Control
MEASURE: Relative deviation % (%)

{"COMPOUND": "COc1cc(C(O)CN)ccc1O (centres unmarked)", "MEASURE": "Relative deviation %", "VALUE_REPORTED": "−3.68"}
{"COMPOUND": "NC[C@H](O)c1ccc(O)c(O)c1", "MEASURE": "Relative deviation %", "VALUE_REPORTED": 0.32}
{"COMPOUND": "NCCc1ccc(O)c(O)c1", "MEASURE": "Relative deviation %", "VALUE_REPORTED": 0.3}
{"COMPOUND": "CNCC(O)c1ccc(O)c(OC)c1 (centres unmarked)", "MEASURE": "Relative deviation %", "VALUE_REPORTED": 0.61}
{"COMPOUND": "COc1cc(CCN)ccc1O", "MEASURE": "Relative deviation %", "VALUE_REPORTED": "−3.54"}

Data credit: patent US20240310368A1
